- Target Or System: VEGF165 (human, UniProt P15692-4 27-191)
- Sequence (P15692 other isoform, or with tags, fused parts or gaps): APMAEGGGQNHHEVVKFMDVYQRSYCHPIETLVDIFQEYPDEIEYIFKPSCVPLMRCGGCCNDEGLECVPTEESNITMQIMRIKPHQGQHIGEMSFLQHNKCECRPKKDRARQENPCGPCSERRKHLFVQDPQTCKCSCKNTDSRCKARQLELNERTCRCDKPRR
- Procedure Summary: SPR; 10 mM Tris-HCl, 150 mM NaCl, 5 mM KCl, pH 7.4; EMSA room temperature 30 min, 12% PAGE in TBE; SPR 25 C (RB1 SPR with 650 mM NaCl)
- Condition Label: protein: recombinant; chain copies: 2; label: 5'-FITC (gel shift); none (SPR); parallel G4
pKd: −log10 of the molar value.
Measurement Kind: pKd

{"Binder": "GGGGCGGGCCGGGGGCGGGGTCCCGGCGGGGCGG (structured_DNA) [VEGFA G4]", "Numeric Value": 6.77}
